target: ΔF508-CFTR (Homo sapiens, UniProt P13569, DEL508-508); construct: host or cells: CFBE41o-, doxycycline-inducible; assay: CFTR cell surface levels using HRP-tagged ΔF508-CFTR expressing CFBE cells, in the presence of a co-corrector; assay type: cell-based; details: HRP-tagged ΔF508-CFTR expressing CFBE cells, in the presence of 3 μM co-corrector; read-out: EC50
Sequence (P13569 with tags, fused parts or gaps DEL508-508): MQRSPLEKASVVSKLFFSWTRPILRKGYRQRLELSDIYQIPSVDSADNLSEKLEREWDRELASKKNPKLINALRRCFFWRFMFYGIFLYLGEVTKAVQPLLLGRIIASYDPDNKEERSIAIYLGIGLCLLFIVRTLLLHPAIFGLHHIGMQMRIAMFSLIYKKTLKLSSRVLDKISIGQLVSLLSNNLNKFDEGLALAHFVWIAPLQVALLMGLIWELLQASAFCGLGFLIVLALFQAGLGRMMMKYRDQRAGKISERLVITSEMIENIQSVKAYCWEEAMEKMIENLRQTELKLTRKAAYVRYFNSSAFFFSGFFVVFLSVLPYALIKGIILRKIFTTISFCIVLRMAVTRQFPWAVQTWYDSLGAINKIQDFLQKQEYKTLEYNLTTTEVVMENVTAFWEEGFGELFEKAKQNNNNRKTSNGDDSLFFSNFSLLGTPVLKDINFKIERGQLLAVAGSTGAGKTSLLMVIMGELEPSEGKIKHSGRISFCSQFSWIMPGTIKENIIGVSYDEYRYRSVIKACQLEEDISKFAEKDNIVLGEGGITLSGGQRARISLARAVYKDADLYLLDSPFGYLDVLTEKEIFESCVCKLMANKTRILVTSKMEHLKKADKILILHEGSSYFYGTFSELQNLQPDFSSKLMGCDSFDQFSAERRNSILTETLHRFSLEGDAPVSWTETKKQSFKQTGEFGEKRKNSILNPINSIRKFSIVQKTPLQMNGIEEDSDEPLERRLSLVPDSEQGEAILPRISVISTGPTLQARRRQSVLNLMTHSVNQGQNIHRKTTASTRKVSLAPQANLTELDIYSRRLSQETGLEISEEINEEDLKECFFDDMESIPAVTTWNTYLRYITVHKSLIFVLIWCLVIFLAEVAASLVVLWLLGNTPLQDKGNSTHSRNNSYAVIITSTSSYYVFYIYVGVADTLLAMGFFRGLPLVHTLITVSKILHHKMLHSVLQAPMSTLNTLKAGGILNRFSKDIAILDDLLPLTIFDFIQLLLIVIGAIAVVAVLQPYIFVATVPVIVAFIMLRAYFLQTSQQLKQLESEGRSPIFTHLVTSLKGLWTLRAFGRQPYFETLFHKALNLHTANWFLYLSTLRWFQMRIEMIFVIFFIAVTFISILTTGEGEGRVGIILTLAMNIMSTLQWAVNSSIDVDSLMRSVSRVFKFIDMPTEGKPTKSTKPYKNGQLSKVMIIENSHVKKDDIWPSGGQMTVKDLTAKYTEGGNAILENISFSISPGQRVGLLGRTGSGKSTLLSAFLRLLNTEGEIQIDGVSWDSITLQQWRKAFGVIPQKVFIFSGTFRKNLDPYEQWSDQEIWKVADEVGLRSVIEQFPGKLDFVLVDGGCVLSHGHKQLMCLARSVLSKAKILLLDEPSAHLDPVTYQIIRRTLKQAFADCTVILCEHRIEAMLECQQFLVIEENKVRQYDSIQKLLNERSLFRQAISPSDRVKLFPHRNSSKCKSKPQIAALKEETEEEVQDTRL
pEC50: −log10 of the molar value.
pEC50 below 6 gives Not fulfilled; pEC50 at or above it gives Fulfilled.

[
  {
    "compound": "O=C(O)c1cc(N2CC(F)(F)C[C@@H]2CO)c2c(C3CCC3)nn(-c3ccccc3)c2n1",
    "assignedLabel": "Not fulfilled"
  }
]

Can CC(C)c1nn(-c2ccc(F)cc2)c2nc(C(=O)O)cc(N3CCN(CCCN(C)C)CC3)c12 be said to have pEC50 at or above 6?
Not fulfilled

Again, but for O=C(O)c1cc(N2CCC(CN3CC4(CCCOC4)C3)CC2)c2c(C3CCC3)nn(-c3ccccc3)c2n1
Fulfilled

Again, but for O=C(O)c1cc(OCC2CCC(F)(F)C2)c2c(C3CCC3)nn(-c3ccccc3)c2n1 (stereo not drawn)
Fulfilled

Again, but for Cc1cccc(-n2nc(C(C)C)c3c(-c4ccc(N5CCOCC5)cc4)cc(C(=O)O)nc32)c1
Fulfilled

Again, but for O=C(O)c1cc(N2CCC(CN3CCCC3)CC2)c2c(C3CCC3)nn(-c3ccccc3)c2n1
Fulfilled

Again, but for Cc1nn(-c2ccccc2)c2nc(C(=O)O)cc(N3CC[C@H](F)C3)c12
Not fulfilled

Again, but for CC(C)c1nn(-c2cccc(N3CCOCC3)n2)c2nc(C(=O)O)cc(-c3ccc(N4CCOCC4)cc3)c12
Fulfilled

Again, but for O=C(O)c1cc(OCCN(C2CCCCC2)C2COC2)c2c(C3CCC3)nn(-c3ccccc3)c2n1
Fulfilled

Again, but for Cc1nn(-c2ccccc2)c2nc(C(=O)O)cc(N3CC4(CCOC4)C3)c12
Not fulfilled

Again, but for COCCOCC1(F)CCN(c2cc(C(=O)O)nc3c2c(C2CCC2)nn3-c2ccccc2)C1 (stereo not drawn)
Fulfilled

Again, but for CC(C1CCN(c2cc(C(=O)O)nc3c2c(C2CCC2)nn3-c2ccc(F)cc2)CC1)N1CCOCC1 (stereo not drawn)
Fulfilled

Again, but for CN(C)CCCOc1cc(C(=O)O)nc2c1c(C1CCC1)nn2-c1ccccc1
Not fulfilled

Again, but for COC1CCN(CC2CCN(c3cc(C(=O)O)nc4c3c(C3CCC3)nn4-c3ccccc3)CC2)CC1
Fulfilled

----------
Reported % Activation values are given for each entry in this list.
target: ΔF508-CFTR (Homo sapiens, UniProt P13569, DEL508-508); construct: host or cells: CFBE41o-, doxycycline-inducible; assay: CFTR cell surface levels using HRP-tagged ΔF508-CFTR expressing CFBE cells, intrinsic corrector capacity; type: cell-based; settings: HRP-tagged ΔF508-CFTR expressing CFBE cells; intrinsic corrector capacity (no co-corrector); 33° C., 20 hours
Record the value in %, omitting the unit from your answer.

[
  {
    "compoundSmiles": "CCCOCCN1CCN(c2cc(C(=O)O)nc3c2c(C2CCC2)nn3-c2ccccc2)CC1",
    "unit": "%",
    "% Activation": 152
  }
]

Record lookup: for ΔF508-CFTR (Homo sapiens, UniProt P13569, DEL508-508), what % Activation belongs to O=C(O)c1cc(OC2CN(C3CCCCC3)C2)c2c(C3CCC3)nn(-c3ccccc3)c2n1 ?
81.59

Again, but for CC(C)N1CCN(c2ccc(-c3cc(C(=O)O)nc4c3c(C3CCC3)nn4C3CCCCC3)cc2)CC1
125.2

Again, but for CCOCC1(F)CCN(c2cc(C(=O)O)nc3c2c(C2CCC2)nn3-c2ccccc2)CC1
158.55

----------
target: ΔF508-CFTR (Homo sapiens, UniProt P13569, DEL508-508); construct: host or cells: CFBE41o-, doxycycline-inducible; assay: CFTR cell surface levels using HRP-tagged ΔF508-CFTR expressing CFBE cells, in the presence of a co-corrector; format: cell-based; details: HRP-tagged ΔF508-CFTR expressing CFBE cells, in the presence of 3 μM co-corrector; read-out: EC50
propertyName: pEC50
Here pEC50 is given on a logarithmic scale as minus log10 of the concentration in mol/L.

Quick check: pEC50 of CC(C)c1nn(-c2ccc(F)cc2)c2nc(C(=O)O)cc(OCCCN3CCOCC3)c12 ?
5.70

Again, but for O=C(O)c1cc(N2CC(N3CCCC3)C2)c2c(C3CCC3)nn(-c3ccccc3)c2n1
5.87

Again, but for CC(C)CN1CCC(CN(C)c2cc(C(=O)O)nc3c2c(C2CCC2)nn3-c2ccccc2)CC1
5.61

Again, but for CN(C)C[C@H](F)C1CCN(c2cc(C(=O)O)nc3c2c(C2CCC2)nn3-c2ccccc2)CC1
6.35

Again, but for COCC1CCN(c2cc(C(=O)O)nc3c2c(C(C)C)nn3-c2ccc(F)cc2)CC1
6.43

Again, but for CC(C)c1nn(-c2ccc(F)cc2)c2nc(C(=O)O)cc(N3CCC(N(C)C)CC3)c12
5.48

Again, but for Cc1nn(-c2ccccc2)c2nc(C(=O)O)cc(N3CCC(O)CC3)c12
5.48

----------
Reported % Activation values are given for each entry in this list.
biological target: ΔF508-CFTR (Homo sapiens, UniProt P13569, DEL508-508); construct: host or cells: CFBE41o-, doxycycline-inducible; assay: CFTR cell surface levels using HRP-tagged ΔF508-CFTR expressing CFBE cells, in the presence of a co-corrector; assay type: cell-based; details: HRP-tagged ΔF508-CFTR expressing CFBE cells, in the presence of 3 μM co-corrector
Record the value in %, omitting the unit from your answer.

[
  {
    "compound": "Cc1nn(-c2ccccc2)c2nc(C(=O)O)cc(-c3cnc(N4CCOCC4)nc3)c12",
    "% Activation [%]": 282.5
  },
  {
    "compound": "CN(c1ccc(-c2cc(C(=O)O)nc3c2c(C2CCC2)nn3-c2ccccc2)cn1)C1CCOCC1",
    "% Activation [%]": 469.58
  },
  {
    "compound": "CC(C)c1nn(C2CCCCC2)c2nc(C(=O)O)cc(N3CCCCC3)c12",
    "% Activation [%]": 397.8
  },
  {
    "compound": "COC(C)(C1CCN(c2cc(C(=O)O)nc3c2c(C2CCC2)nn3-c2ccccc2)CC1)C(F)(F)F (centres unmarked)",
    "% Activation [%]": 435.6
  },
  {
    "compound": "COc1ccc(-c2cc(C(=O)O)nc3c2c(C)nn3C2CCCCC2)cc1",
    "% Activation [%]": 198.6
  },
  {
    "compound": "O=C(O)c1cc(N2CCC(OCC(=O)N3CCCC3)CC2)c2c(C3CCC3)nn(-c3ccccc3)c2n1",
    "% Activation [%]": 406.35
  },
  {
    "compound": "CC(C)c1nn(-c2cccc(N3CCOCC3)c2)c2nc(C(=O)O)cc(-c3cnc(N(C)C4CCOCC4)nc3)c12",
    "% Activation [%]": 625.45
  },
  {
    "compound": "Cc1nn(-c2ccccc2)c2nc(C(=O)O)cc(O[C@H]3C[C@@H](N4CCCCC4)C3)c12",
    "% Activation [%]": 151.2
  },
  {
    "compound": "CC(C)c1nn(-c2cccc(F)c2)c2nc(C(=O)O)cc(-c3ccc(N4CCOCC4)cc3)c12",
    "% Activation [%]": 394.12
  },
  {
    "compound": "CN(C)C1CCN(c2cc(C(=O)O)nc3c2c(C2CCC2)nn3-c2ccccc2)CC1",
    "% Activation [%]": 343.3
  }
]

Quick check: % Activation of COCCC1CCN(c2cc(C(=O)O)nc3c2c(C2CCC2)nn3-c2ccccc2)CC1 ?
507.25

Again, but for CC(C)c1nn(-c2cccc(N(C)C)c2)c2nc(C(=O)O)cc(-c3cnc(N4CCOCC4)nc3)c12
541.12

Again, but for C[C@@H](CN(C)C)Oc1cc(C(=O)O)nc2c1c(C1CCC1)nn2-c1ccccc1
216.65

Again, but for O=C(O)c1cc(NCC2CCOCC2)c2c(C3CCC3)nn(-c3ccccc3)c2n1
310.45

Again, but for CCN(C1CCN(c2cc(C(=O)O)nc3c2c(C2CCC2)nn3-c2ccccc2)CC1)C1COC1
415

Again, but for O=C(O)c1cc(N2CC3(CCCCC3)C2)c2c(C3CCC3)nn(-c3ccccc3)c2n1
249.3

Again, but for O=C(O)c1cc(N2CCC(CN3CCC4(CC3)COC4)CC2)c2c(C3CCC3)nn(-c3ccccc3)c2n1
368.8

Again, but for CN(C)CCCN1CCN(c2cc(C(=O)O)nc3c2c(C2CCC2)nn3-c2ccccc2)CC1
221.6

Again, but for CN(C)CCC1CCN(c2cc(C(=O)O)nc3c2c(C2CCC2)nn3-c2ccccc2)CC1
415.6

Again, but for CC(C)c1nn(-c2cccc(N3CCC3)c2)c2nc(C(=O)O)cc(-c3ccc(N4CCOCC4)cc3)c12
562.6

Again, but for Cc1nn(C)cc1-c1cc(C(=O)O)nc2c1c(C(C)C)nn2C1CCCCC1
210.15

Again, but for CC(C)c1nn(C2CCOC2)c2nc(C(=O)O)cc(-c3ccc(N4CCOCC4)cc3)c12 (centres unmarked)
231.45

Again, but for O=C(O)c1cc(N2CCC3(CCCO3)C2)c2c(C3CCC3)nn(-c3ccccc3)c2n1 (centres unmarked)
237
